Cited source for all entries: ChEMBL document CHEMBL1932918

Molecular target: Acetylcholinesterase (Electrophorus electricus, UniProt O42275)
Sequence (O42275 whole entry): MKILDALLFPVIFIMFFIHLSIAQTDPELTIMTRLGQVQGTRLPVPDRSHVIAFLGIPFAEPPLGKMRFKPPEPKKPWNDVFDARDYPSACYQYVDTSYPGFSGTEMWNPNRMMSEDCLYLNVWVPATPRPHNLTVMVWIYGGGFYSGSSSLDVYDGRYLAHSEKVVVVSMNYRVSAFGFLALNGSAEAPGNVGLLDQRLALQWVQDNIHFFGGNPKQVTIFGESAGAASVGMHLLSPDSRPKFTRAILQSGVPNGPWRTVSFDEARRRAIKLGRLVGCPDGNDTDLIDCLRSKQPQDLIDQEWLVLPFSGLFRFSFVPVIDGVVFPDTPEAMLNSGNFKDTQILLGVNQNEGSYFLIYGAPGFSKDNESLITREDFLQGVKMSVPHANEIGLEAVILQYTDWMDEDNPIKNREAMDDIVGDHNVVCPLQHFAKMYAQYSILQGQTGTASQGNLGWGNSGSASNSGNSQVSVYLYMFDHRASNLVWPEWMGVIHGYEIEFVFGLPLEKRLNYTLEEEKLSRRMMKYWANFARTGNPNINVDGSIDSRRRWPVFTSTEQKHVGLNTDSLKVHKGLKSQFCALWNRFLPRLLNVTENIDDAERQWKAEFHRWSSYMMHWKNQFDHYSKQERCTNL
Assign pIC50 to each entry below.
Answers are plain numbers, as −log10 of the molar value.

Previously resolved entries follow.
COc1cc2c(cc1OC)C(=O)C1(C2)C(c2ccncc2)C2CSCN2C12C(=O)Nc1ccc(Cl)cc12 (stereo not given)	6.47
COc1cc2c(cc1OC)C(=O)C1(C2)C(c2ccc(F)cc2)C2CSCN2C12C(=O)Nc1ccc(Cl)cc12 (stereo not given)	5.81
COc1ccc(C2C3CSCN3C3(C(=O)Nc4ccc([N+](=O)[O-])cc43)C23Cc2cc(OC)c(OC)cc2C3=O)cc1OC (stereo not given)	5.68
COc1cc2c(cc1OC)C(=O)C1(C2)C(c2ccncc2)C2CSCN2C12C(=O)Nc1ccccc12 (stereo not given)	6.32
COc1cc2c(cc1OC)C(=O)C1(C2)C(c2ccc(F)cc2)C2CSCN2C12C(=O)Nc1ccc([N+](=O)[O-])cc12 (stereo not given)	5.94
COc1ccc(C2C3CSCN3C3(C(=O)Nc4ccc(Cl)cc43)C23Cc2cc(OC)c(OC)cc2C3=O)cc1OC (stereo not given)	5.65

Hi there! I need pIC50 for each item below, if you can.
1. COc1cc2c(cc1OC)C(=O)C1(C2)C(c2ccccc2)C2CSCN2C12C(=O)Nc1ccc(Cl)cc12 (stereo not given)
2. COc1ccc(C2C3CSCN3C3(C(=O)Nc4ccccc43)C23Cc2cc(OC)c(OC)cc2C3=O)cc1OC (stereo not given)
3. COc1cc2c(cc1OC)C(=O)C1(C2)C(c2ccncc2)C2CSCN2C12C(=O)Nc1ccc([N+](=O)[O-])cc12 (stereo not given)
4. COc1cc2c(cc1OC)C(=O)C1(C2)C(c2ccccc2)C2CSCN2C12C(=O)Nc1ccc([N+](=O)[O-])cc12 (stereo not given)

5.59
5.21
6.96
5.50

* * *

Target: Acetylcholinesterase (Electrophorus electricus)
Value type: pIC50
Answers are plain numbers, as −log10 of the molar value.

COc1cc2c(cc1OC)C(=O)C1(C2)C(c2ccccc2Cl)C2CSCN2C12C(=O)Nc1ccc([N+](=O)[O-])cc12 (stereo not given)	5.67
COc1cc2c(cc1OC)C(=O)C1(C2)C(c2ccccc2Cl)C2CSCN2C12C(=O)Nc1ccc(Cl)cc12 (stereo not given)	5.48

Return reported pIC50 values for all items listed beneath this line.
1. COc1cc2c(cc1OC)C(=O)C1(C2)C(c2ccc(F)cc2)C2CSCN2C12C(=O)Nc1ccccc12 (stereo not given)
2. COc1cc2c(cc1OC)C(=O)C1(C2)C(c2ccccc2Cl)C2CSCN2C12C(=O)Nc1ccccc12 (stereo not given)

[5.95, 5.08]

Query COc1cc2c(cc1OC)C(=O)C1(C2)C(c2ccccc2)C2CSCN2C12C(=O)Nc1ccccc12 (stereo not given) yields pIC50 of 5.24
